target: Macaca fascicularis IL-36R extracellular domain expressed with a C-terminal myc-myc-hexahistidine tag (Macaca fascicularis); experiment: SPR Biacore T200, mAb captured by anti-hFc, 25C, PBS-T pH 6.0
Reported Metric: t½ (min)

[
  {
    "Binder": "H4H14731P (antibody, human IgG4 S228P, kappa, V domains shown) VH: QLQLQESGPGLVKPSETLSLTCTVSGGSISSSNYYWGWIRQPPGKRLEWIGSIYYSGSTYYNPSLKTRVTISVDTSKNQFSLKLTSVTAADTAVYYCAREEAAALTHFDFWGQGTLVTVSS VL: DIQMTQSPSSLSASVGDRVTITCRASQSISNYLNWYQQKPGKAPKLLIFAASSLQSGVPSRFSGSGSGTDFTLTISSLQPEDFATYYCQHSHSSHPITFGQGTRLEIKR",
    "Reported Metric": "t½",
    "Numeric Readout": 8
  },
  {
    "Binder": "H4H14728P (antibody, human IgG4 S228P, kappa, V domains shown) VH: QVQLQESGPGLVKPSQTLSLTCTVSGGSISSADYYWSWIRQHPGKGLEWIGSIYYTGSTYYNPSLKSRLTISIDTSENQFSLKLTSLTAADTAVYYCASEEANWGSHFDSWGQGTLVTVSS VL: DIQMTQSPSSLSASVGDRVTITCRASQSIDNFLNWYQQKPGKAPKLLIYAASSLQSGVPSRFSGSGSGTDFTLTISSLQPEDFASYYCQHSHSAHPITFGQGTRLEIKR",
    "Reported Metric": "t½",
    "Numeric Readout": 19
  },
  {
    "Binder": "H4H14708P2 (antibody, human IgG4 S228P, kappa, V domains shown) VH: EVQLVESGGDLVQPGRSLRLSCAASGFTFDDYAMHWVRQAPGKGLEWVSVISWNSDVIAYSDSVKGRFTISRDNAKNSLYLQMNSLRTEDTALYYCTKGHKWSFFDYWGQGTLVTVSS VL: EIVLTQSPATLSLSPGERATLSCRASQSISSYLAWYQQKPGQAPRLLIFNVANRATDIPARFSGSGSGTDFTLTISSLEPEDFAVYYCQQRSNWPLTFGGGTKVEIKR",
    "Reported Metric": "t½",
    "Numeric Readout": 8
  },
  {
    "Binder": "H4H14700P2 (antibody, human IgG4 S228P, kappa, V domains shown) VH: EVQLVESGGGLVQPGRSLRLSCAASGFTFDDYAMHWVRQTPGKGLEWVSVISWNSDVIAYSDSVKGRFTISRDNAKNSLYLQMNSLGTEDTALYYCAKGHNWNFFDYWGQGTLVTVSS VL: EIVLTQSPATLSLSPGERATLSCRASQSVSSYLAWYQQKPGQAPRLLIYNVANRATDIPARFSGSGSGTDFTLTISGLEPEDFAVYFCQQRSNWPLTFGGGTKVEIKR",
    "Reported Metric": "t½",
    "Numeric Readout": 7
  }
]

The values you see were collected from patent US20200017592A1.
